Each entry below carries its recorded melting point.

Some compounds with recorded melting point:
| COMPOUND | melting point |
| --- | --- |
| O=C(Nc1ccccc1[N+](=O)[O-])c1ccc2ccccc2c1 [Compound 38a, N-(2-Nitrophenyl)-2-naphthamide] | 136 °C |
| O=C(Nc1cccc(O)c1)c1ccc2ccccc2n1 [Compound 12b] | 154 to 155 °C |
| O=C(Nc1cccc(Br)c1)c1ccc2ccccc2n1 [Compound 17b, N-(3-Bromophenyl)quinoline-2-carboxamide] | 139 to 140 °C |
| O=C(Nc1cccc(Cl)c1)c1ccc2ccccc2c1 [Compound 35b, N-(3-Chlorophenyl)-2-naphthamide] | 180 °C |
| Cc1ccccc1NC(=O)c1ccc2ccccc2n1 [Compound 14a] | 100 to 101 °C |

Below: the item to evaluate.
Consider O=C(Nc1ccccc1Br)c1ccc2ccccc2n1 [Compound 17a, N-(2-Bromophenyl)quinoline-2-carboxamide] . Its measured melting point is 134 to 135 °C

====

VALUE_KIND: melting point

| COMPOUND | VALUE_KIND | RECORDED_MEASUREMENT |
| --- | --- | --- |
| O=C(Nc1ccc(O)cc1)c1ccc2ccccc2n1 [Compound 12c] | melting point | 230 to 231 °C |
| O=C(Nc1cccc([N+](=O)[O-])c1)c1ccc2ccccc2n1 [Compound 19b, N-(3-Nitrophenyl)quinoline-2-carboxamide] | melting point | 189 to 190 °C |
| O=C(Nc1ccc([N+](=O)[O-])cc1)c1ccc2ccccc2n1 [Compound 19c, N-(4-Nitrophenyl)quinoline-2-carboxamide] | melting point | 227 to 228 °C |
| O=C(Nc1ccccc1C(F)(F)F)c1ccc2ccccc2n1 [Compound 18a] | melting point | 120 to 121 °C |
| CCCCCCCCCCCCNC(=O)c1ccc2ccccc2c1 [Compound 21, N-Dodecyl-2-naphthamide] | melting point | 102 to 103 °C |

Consider O=C(c1ccc2ccccc2c1)N1CCCCC1 [Compound 23, 1-(2-Naphthoyl)piperidine] . Its measured melting point is 97 to 98 °C

Consider O=C(Nc1ccc(Cl)cc1)c1ccc2ccccc2c1 [Compound 35c, N-(4-Chlorophenyl)-2-naphthamide] . Its measured melting point is 218 °C

Consider O=C(Nc1ccc(Br)cc1)c1ccc2ccccc2c1 [Compound 36c, N-(4-Bromophenyl)-2-naphthamide] . Its measured melting point is 231 °C

====

VALUE_KIND: melting point

Some molecules with recorded melting point:
| MOLECULE | melting point |
| --- | --- |
| O=C(Nc1ccc(Cl)cc1)c1ccc2ccccc2n1 [Compound 16c] | 134 to 135 °C |
| O=C(NC1CCCCC1)c1ccc2ccccc2n1 [Compound 6, N-Cyclohexylquinoline-2-carboxamide] | 98 to 99 °C |
| Cc1ccc(NC(=O)c2ccc3ccccc3c2)cc1 [Compound 33c, N-(4-Methylphenyl)-2-naphthamide] | 195 °C |
| O=C(Nc1ccccc1O)c1ccc2ccccc2n1 [Compound 12a] | 219 to 220 °C |

Below: the item to evaluate.
Consider COc1ccc(NC(=O)c2ccc3ccccc3n2)cc1 [Compound 13c] . Its measured melting point is 130 to 131 °C
